Endpoint: pIC50. System: USP8 (Homo sapiens, UniProt P40818). Items follow.
Sequence (P40818 whole entry): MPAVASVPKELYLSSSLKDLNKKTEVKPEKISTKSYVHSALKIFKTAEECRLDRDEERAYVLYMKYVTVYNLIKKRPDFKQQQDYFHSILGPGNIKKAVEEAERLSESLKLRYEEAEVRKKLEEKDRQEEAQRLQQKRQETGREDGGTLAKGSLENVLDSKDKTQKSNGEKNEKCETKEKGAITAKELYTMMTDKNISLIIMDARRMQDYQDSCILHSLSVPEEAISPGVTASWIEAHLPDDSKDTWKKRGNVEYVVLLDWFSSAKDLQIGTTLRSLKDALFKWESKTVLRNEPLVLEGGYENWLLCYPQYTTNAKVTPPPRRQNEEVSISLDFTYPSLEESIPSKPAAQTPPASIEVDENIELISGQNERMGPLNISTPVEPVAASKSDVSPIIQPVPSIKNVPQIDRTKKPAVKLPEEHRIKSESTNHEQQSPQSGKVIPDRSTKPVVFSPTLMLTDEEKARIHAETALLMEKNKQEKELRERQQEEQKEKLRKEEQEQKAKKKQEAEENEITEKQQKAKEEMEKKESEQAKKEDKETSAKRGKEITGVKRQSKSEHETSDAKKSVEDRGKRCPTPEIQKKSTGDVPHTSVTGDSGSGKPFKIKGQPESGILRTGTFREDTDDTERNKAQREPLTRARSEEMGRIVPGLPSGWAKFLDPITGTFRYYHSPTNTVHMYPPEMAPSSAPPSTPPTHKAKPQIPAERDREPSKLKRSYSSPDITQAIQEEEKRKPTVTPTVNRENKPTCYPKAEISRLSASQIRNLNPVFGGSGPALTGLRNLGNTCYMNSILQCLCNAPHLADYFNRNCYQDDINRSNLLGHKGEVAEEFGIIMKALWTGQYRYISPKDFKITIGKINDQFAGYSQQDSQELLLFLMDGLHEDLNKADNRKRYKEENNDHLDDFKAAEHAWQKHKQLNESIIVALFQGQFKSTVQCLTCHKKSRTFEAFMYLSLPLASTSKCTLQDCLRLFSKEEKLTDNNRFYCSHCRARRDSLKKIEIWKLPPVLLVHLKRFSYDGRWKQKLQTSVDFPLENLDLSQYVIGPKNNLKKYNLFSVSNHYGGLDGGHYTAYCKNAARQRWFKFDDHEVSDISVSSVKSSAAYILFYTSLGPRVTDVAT
pIC50 here is simply -log10 of the concentration when that concentration is written in mol/L.

compound: CON=C1c2ccccc2-c2nc(C#N)c(C#N)nc21 [Example 13a]
pIC50: 6.01

IN: State pIC50 (USP8 (Homo sapiens, UniProt P40818)) of Cc1ccc2c(c1)-c1nc(C#N)c(C#N)nc1C2=O [Example 17e] .
OUT: 6.03

IN: State pIC50 (USP8 (Homo sapiens, UniProt P40818)) of N#Cc1nc2c(nc1C(N)=O)-c1ccccc1/C2=N\O [Example 33] .
OUT: 6.13
